Source listed as patent US20220402995A1.

Each item that follows carries a reported Residual activity [%].
biological target: T1, VLP2 (virus-like particles of AAV2) (AAV2, UniProt P03135 1-735; P03135 1-598; P03135 1-533); experiment: ELISA on VLP2; binding after pH 10.0 41.2°C 15 min / untreated
T1 construct: Empty AAV2 capsid; background says about 60 protein molecules, VP1:VP2:VP3 = 1:1:10; Immobilised on the ELISA plate
T1 sequence (P03135 whole entry, chain 1 of 3): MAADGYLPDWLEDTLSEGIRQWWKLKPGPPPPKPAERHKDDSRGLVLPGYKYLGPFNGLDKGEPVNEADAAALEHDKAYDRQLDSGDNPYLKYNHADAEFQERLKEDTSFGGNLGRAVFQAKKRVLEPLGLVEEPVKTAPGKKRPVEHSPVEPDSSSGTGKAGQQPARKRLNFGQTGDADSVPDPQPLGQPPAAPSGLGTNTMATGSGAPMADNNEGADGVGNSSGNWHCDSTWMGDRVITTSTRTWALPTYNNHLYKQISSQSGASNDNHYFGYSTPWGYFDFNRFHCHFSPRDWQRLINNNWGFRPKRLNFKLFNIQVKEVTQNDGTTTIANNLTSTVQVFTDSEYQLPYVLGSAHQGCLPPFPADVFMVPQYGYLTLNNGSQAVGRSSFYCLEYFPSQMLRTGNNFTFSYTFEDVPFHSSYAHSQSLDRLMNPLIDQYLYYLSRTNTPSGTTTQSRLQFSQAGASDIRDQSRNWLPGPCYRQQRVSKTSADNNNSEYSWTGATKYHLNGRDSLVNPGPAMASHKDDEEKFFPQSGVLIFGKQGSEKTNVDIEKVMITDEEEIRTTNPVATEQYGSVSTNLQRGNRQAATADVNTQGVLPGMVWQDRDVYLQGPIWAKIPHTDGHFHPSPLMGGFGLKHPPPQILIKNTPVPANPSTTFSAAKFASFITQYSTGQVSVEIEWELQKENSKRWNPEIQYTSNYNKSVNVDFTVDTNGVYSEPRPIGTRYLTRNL
T1 sequence (P03135 139-735, tags left off, chain 2 of 3): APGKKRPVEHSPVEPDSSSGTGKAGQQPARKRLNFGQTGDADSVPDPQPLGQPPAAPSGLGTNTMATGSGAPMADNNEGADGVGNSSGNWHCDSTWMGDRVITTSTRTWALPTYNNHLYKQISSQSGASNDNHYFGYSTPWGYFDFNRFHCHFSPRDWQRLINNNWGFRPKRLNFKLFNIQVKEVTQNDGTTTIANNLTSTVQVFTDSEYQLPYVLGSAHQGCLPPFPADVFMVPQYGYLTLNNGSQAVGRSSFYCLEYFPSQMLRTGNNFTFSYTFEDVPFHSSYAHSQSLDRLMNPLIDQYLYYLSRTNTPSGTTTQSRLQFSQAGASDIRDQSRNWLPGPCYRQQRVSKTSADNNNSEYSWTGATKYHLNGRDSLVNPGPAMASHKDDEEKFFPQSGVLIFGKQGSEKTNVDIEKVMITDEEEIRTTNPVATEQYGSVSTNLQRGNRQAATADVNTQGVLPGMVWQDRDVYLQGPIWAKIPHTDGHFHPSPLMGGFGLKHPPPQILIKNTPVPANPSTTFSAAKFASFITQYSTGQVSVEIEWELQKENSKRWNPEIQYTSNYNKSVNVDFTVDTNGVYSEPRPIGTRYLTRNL
T1 sequence (P03135 203-735, chain 3 of 3): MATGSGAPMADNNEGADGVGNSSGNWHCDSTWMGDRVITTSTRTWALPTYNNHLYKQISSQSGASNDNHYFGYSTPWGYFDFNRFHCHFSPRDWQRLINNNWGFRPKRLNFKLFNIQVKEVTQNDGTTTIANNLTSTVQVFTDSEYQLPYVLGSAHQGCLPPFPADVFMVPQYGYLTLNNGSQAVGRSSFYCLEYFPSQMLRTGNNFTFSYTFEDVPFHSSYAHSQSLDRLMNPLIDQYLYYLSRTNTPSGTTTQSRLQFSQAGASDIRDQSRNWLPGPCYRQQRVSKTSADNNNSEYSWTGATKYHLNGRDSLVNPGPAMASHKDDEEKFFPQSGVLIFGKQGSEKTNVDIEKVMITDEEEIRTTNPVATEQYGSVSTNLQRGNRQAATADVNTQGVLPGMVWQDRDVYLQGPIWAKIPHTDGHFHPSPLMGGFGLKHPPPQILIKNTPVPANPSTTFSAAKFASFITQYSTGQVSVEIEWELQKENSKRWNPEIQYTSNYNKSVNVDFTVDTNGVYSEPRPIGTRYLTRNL
recorded metric: Residual activity [%] (%)

1. AAV-binding protein No. 119 (AVR8g + Phe379Ser) (receptor) MGSAGESDQITLPKNEVQLNAYVLQEPPKGETCTYDWQLITHPRDYSGEMEGEHSQILKLSNLTPGLYESKVIVEGQNAHSEGYVNVTVEPEPRKNRPPIAIVSPQFQEISLPTTSTVIDGSQSTDDDKIVQYHWEELKGPLREEKISEDTAILKLSKLVPGNYTFRLTVVDSDGATDSTTANLTVNKAVDHHHHHH; 24.3
2. AAV-binding protein No. 133 (AVR8g + Gln327Leu, Lys(Asn)371Asp) (receptor, Asn371 of AVR8g replaced by Asp) MGSAGESDQITLPKNEVLLNAYVLQEPPKGETCTYDWQLITHPRDYSGEMEGEHSQILKLSDLTPGLYEFKVIVEGQNAHSEGYVNVTVEPEPRKNRPPIAIVSPQFQEISLPTTSTVIDGSQSTDDDKIVQYHWEELKGPLREEKISEDTAILKLSKLVPGNYTFRLTVVDSDGATDSTTANLTVNKAVDHHHHHH; 62.1
3. AAV-binding protein No. 109 (AVR8g + Glu360Lys) (receptor) MGSAGESDQITLPKNEVQLNAYVLQEPPKGETCTYDWQLITHPRDYSGEMKGEHSQILKLSNLTPGLYEFKVIVEGQNAHSEGYVNVTVEPEPRKNRPPIAIVSPQFQEISLPTTSTVIDGSQSTDDDKIVQYHWEELKGPLREEKISEDTAILKLSKLVPGNYTFRLTVVDSDGATDSTTANLTVNKAVDHHHHHH; 40.2
